Notes on IC50 obtained with Poly [ADP-ribose] polymerase 1 (Homo sapiens).
Sequence (P09874 whole entry): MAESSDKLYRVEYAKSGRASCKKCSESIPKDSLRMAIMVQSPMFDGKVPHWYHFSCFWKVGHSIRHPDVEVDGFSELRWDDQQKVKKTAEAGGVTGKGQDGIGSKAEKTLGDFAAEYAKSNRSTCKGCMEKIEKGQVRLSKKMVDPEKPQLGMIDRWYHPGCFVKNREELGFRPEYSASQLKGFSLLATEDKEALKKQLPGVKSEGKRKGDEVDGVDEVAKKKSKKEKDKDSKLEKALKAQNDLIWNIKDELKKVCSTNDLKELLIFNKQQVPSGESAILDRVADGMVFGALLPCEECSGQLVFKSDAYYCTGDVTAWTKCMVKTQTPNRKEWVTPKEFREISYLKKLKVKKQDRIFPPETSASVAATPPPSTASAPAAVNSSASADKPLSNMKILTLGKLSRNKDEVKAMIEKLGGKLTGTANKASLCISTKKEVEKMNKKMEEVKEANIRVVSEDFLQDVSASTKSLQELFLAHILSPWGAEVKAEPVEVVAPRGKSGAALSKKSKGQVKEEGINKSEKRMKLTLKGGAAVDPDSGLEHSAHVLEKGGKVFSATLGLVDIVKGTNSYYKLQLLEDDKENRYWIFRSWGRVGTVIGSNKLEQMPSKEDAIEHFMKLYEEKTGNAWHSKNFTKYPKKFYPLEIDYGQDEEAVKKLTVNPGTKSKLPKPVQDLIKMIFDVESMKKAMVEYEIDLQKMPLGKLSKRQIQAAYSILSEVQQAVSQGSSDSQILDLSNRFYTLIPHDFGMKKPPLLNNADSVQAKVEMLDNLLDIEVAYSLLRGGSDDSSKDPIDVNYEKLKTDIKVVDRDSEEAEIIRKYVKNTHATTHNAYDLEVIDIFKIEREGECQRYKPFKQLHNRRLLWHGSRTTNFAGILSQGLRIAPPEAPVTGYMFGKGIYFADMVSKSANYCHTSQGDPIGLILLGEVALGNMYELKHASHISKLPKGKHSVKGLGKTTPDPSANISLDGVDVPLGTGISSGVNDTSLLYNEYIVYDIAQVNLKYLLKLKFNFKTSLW
Your answer is read as nM, so omit the unit and give the number.

Please review the following examples before continuing.
[[record]]
compound = "CNCc1ccc(-n2nc3c(C(N)=O)cccc3c2Cl)cc1"
study_system = "Poly [ADP-ribose] polymerase 1 (Homo sapiens)"
recorded_result = 20

[[record]]
compound = "NC(=O)c1cc(F)cc2cn(-c3ccc(NC(=O)C4CNC4)c(F)c3)nc12"
study_system = "Poly [ADP-ribose] polymerase 1 (Homo sapiens)"
recorded_result = 4

[[record]]
compound = "NC(=O)c1cccc2cn(-c3ccc(NC(=O)CN4CCOCC4)cc3)nc12"
study_system = "Poly [ADP-ribose] polymerase 1 (Homo sapiens)"
recorded_result = 30

[[record]]
compound = "NC(=O)c1cccc2cn(-c3ccc(C(=O)NCCN4CCCC4)cc3)nc12"
study_system = "Poly [ADP-ribose] polymerase 1 (Homo sapiens)"
recorded_result = 20

[[record]]
compound = "CN1CCC[C@H]1C(=O)Nc1ccc(-n2cc3cccc(C(N)=O)c3n2)cc1"
study_system = "Poly [ADP-ribose] polymerase 1 (Homo sapiens)"
recorded_result = 17


Data request: What value of measured IC50 is listed for CNCc1ccc(-n2cc3c(F)ccc(C(N)=O)c3n2)cc1 ?
Data returned: 8

Data request: What value of measured IC50 is listed for CN(C)CCNC(=O)c1ccc(-n2cc3cccc(C(N)=O)c3n2)cc1 ?
Data returned: 10

###

Recorded pIC50 values (Poly [ADP-ribose] polymerase 1 (Homo sapiens, UniProt P09874)) are given below.
Bear in mind: pIC50 is minus log10 of a mol/L concentration; give just that figure.

// solved cases for pIC50 follow
[[record]]
compound = "CN1CCCC(C(=O)NCc2ccc(-n3cc4cccc(C(N)=O)c4n3)cc2)C1 (configuration not stated)"
study_system = "Poly [ADP-ribose] polymerase 1 (Homo sapiens, UniProt P09874)"
recorded_result = 7.66

[[record]]
compound = "CN1CCC[C@@H](C(=O)Nc2ccc(-n3cc4cccc(C(N)=O)c4n3)cc2)C1"
study_system = "Poly [ADP-ribose] polymerase 1 (Homo sapiens, UniProt P09874)"
recorded_result = 7.52

[[record]]
compound = "NC(=O)c1cccc2cn(-c3ccc(CNC(=O)C4CNC4)cc3)nc12"
study_system = "Poly [ADP-ribose] polymerase 1 (Homo sapiens, UniProt P09874)"
recorded_result = 7.19

[[record]]
compound = "CNCc1ccc(-n2cc3cc(F)cc(C(N)=O)c3n2)cc1"
study_system = "Poly [ADP-ribose] polymerase 1 (Homo sapiens, UniProt P09874)"
recorded_result = 8.85

[[record]]
compound = "NC(=O)c1cccc2cn(-c3ccc(C(=O)NCc4ccncc4)cc3)nc12"
study_system = "Poly [ADP-ribose] polymerase 1 (Homo sapiens, UniProt P09874)"
recorded_result = 8.00

[[record]]
compound = "CNCc1ccc(-n2cc3cccc(C(N)=O)c3n2)cc1C(F)(F)F"
study_system = "Poly [ADP-ribose] polymerase 1 (Homo sapiens, UniProt P09874)"
recorded_result = 8.30

[[record]]
compound = "CN1CCC(C(=O)Nc2ccc(-n3cc4cc(F)cc(C(N)=O)c4n3)cc2)CC1"
study_system = "Poly [ADP-ribose] polymerase 1 (Homo sapiens, UniProt P09874)"
recorded_result = 7.80

[[record]]
compound = "CN1CCC(C(=O)Nc2ccc(-n3cc4cccc(C(N)=O)c4n3)cc2)CC1"
study_system = "Poly [ADP-ribose] polymerase 1 (Homo sapiens, UniProt P09874)"
recorded_result = 8.00


Data request: What value of pIC50 has been recorded for this entry: NC(=O)c1cccc2cn(-c3ccc(C(=O)NCCN4CCCCC4)cc3)nc12
Data returned: 7.42

Data request: Any idea what pIC50 was measured for CN(Cc1ccc(-n2cc3cccc(C(N)=O)c3n2)cc1)C(=O)C1CNC1 ?
Data returned: 7.74

Data request: Look up pIC50 for this compound: CNCc1ccc(-n2cc3c(F)c(F)cc(C(N)=O)c3n2)cc1
Data returned: 7.60

Data request: Which value of pIC50 has been reported for NC(=O)c1cccc2cn(-c3ccc(NC(=O)CN4CCCCC4)cc3)nc12 in the records?
Data returned: 7.70

Data request: # lookup: pIC50 of NC(=O)c1cccc2cn(-c3ccc(C(=O)Nc4ccncc4)cc3)nc12
Data returned: 7.52

Data request: # pIC50 lookup, item NC(=O)c1cccc2cn(-c3ccc(C(=O)N4CCCNCC4)cc3)nc12
Data returned: 7.66

Data request: Name the recorded pIC50 for CN1CCCC(C(=O)N(C)Cc2ccc(-n3cc4cccc(C(N)=O)c4n3)cc2)C1 (configuration not stated) .
Data returned: 7.60

Data request: Which measured pIC50 value corresponds to CNCc1ccc(-n2cc3cccc(C(N)=O)c3n2)cc1O ?
Data returned: 7.92

Data request: # input compound: CN1CC(C(=O)Nc2ccc(-n3cc4cc(F)cc(C(N)=O)c4n3)cc2)C1 ; wanted: its pIC50
Data returned: 8.22

###

assay: Clearance in rat; format: ADME, organism-based; details: in vivo
Here the recorded clearance is given for each entry.
Answer format: numeric, mL/min/kg implied, no suffix.

# count of solved cases: 4
[[record]]
item_smiles = "CN1CCC[C@@H](C(=O)Nc2ccc(-n3cc4cccc(C(N)=O)c4n3)cc2)C1"
unit_of_measurement = "mL/min/kg"
recorded_result = 23

[[record]]
item_smiles = "NC(=O)c1cc(F)cc2cn(-c3ccc(NC(=O)C4CNC4)cc3)nc12"
unit_of_measurement = "mL/min/kg"
recorded_result = 13

[[record]]
item_smiles = "CN1CCC(C(=O)Nc2ccc(-n3cc4cc(F)cc(C(N)=O)c4n3)cc2)CC1"
unit_of_measurement = "mL/min/kg"
recorded_result = 26

[[record]]
item_smiles = "CN1CCC[C@H](C(=O)Nc2ccc(-n3cc4cccc(C(N)=O)c4n3)cc2)C1"
unit_of_measurement = "mL/min/kg"
recorded_result = 42


We next turn to a different molecule, shown below.
Data request: Consider the molecule shown here: NC(=O)c1cccc2cn(-c3ccc(NC(=O)C4CNC4)cc3)nc12 What is its recorded clearance?
Data returned: 13

###

test system: HeLa; test: Cytotoxicity against human BRCA1 deficient HeLa cells after 7 days by fluorimetric analysis; type: functional, cell-based; conditions: 168 h
Each record here notes measured log10(IC50).
Lab note - IC50 converted to log10 from values in nM.

[[record]]
compound = "CN(C)CCNC(=O)c1ccc(-n2cc3cccc(C(N)=O)c3n2)cc1"
study_system = "HeLa"
recorded_result = 3.73

[[record]]
compound = "NC(=O)c1cccc2cn(-c3ccc(NC(=O)C4CNC4)cc3)nc12"
study_system = "HeLa"
recorded_result = 2.96

[[record]]
compound = "CNCc1ccc(-n2cc3c(Cl)ccc(C(N)=O)c3n2)cc1"
study_system = "HeLa"
recorded_result = 3.72

[[record]]
compound = "CN1CCC[C@@H](C(=O)Nc2ccc(-n3cc4cccc(C(N)=O)c4n3)cc2)C1"
study_system = "HeLa"
recorded_result = 2.91

[[record]]
compound = "CN1CCC[C@H]1C(=O)Nc1ccc(-n2cc3cccc(C(N)=O)c3n2)cc1"
study_system = "HeLa"
recorded_result = 3.08


Data request: Given the compound CNCc1ccc(-n2cc3ccc(F)c(C(N)=O)c3n2)cc1 , what is its reported log10(IC50)?
Data returned: 3.20

Data request: Query: log10(IC50); subject: CNCc1ccc(-n2cc3cccc(C(N)=O)c3n2)cc1C(F)(F)F
Data returned: 3.79

Data request: // log10(IC50) lookup, key: NC(=O)c1cccc2cn(-c3ccc(NC(=O)CN4CCCCC4)cc3)nc12
Data returned: 3.15

Data request: Would you mind telling me what log10(IC50) value was observed for CN1CCC[C@H](C(=O)Nc2ccc(-n3cc4cccc(C(N)=O)c4n3)cc2)C1 ?
Data returned: 3.11

Data request: Which log10(IC50) value belongs to CNCc1ccc(-n2cc3cc(F)cc(C(N)=O)c3n2)c(F)c1 ?
Data returned: 2.36

Data request: Need log10(IC50) of CNCc1ccc(-n2cc3cc(F)cc(C(N)=O)c3n2)cc1F , thanks.
Data returned: 1.41

Data request: What value of log10(IC50) has been recorded for this entry: CNCc1ccc(-n2cc3c(OC)ccc(C(N)=O)c3n2)cc1
Data returned: 3.53

Data request: Please give the measured log10(IC50) for this compound: CN(C)CC(=O)Nc1ccc(-n2cc3cccc(C(N)=O)c3n2)cc1
Data returned: 3.18

Data request: Would you mind telling me what log10(IC50) value was observed for NC(=O)c1cccc2cn(-c3ccc(C(=O)NCCN4CCOCC4)cc3)nc12 ?
Data returned: 3.88

Data request: Which log10(IC50) is listed for NC(=O)c1cccc2cn(-c3ccc(C(=O)NCCN4CCCC4)cc3)nc12 ?
Data returned: 3.52

Data request: Query: log10(IC50); subject: CNCc1ccc(-n2nc3c(C(N)=O)cccc3c2Cl)cc1
Data returned: 3.77

Data request: Reported log10(IC50) for CNCc1ccc(-n2cc3cc(F)cc(C(N)=O)c3n2)cc1 : what is it?
Data returned: 1.97

Data request: Please look up its log10(IC50): CN1CCCCC1C(=O)Nc1ccc(-n2cc3cccc(C(N)=O)c3n2)cc1 (racemic)
Data returned: 3.41

Data request: Would you kindly share the measured log10(IC50) for CNCc1ccc(-n2cc3cc(Cl)cc(C(N)=O)c3n2)cc1 ?
Data returned: 2.41

Data request: Request the reported log10(IC50) associated with CN1CCC(C(=O)Nc2ccc(-n3cc4cccc(C(N)=O)c4n3)cc2)CC1
Data returned: 3.56

Data request: Which log10(IC50) is listed for NC(=O)c1cccc2cn(-c3ccc(C(=O)NCCN4CCCCC4)cc3)nc12 ?
Data returned: 3.48

Data request: Quick one: log10(IC50) for CNCc1ccc(-n2cc3cccc(C(N)=O)c3n2)cc1 ?
Data returned: 2.70

Data request: Record request: log10(IC50) value, item NC(=O)c1cccc2cn(-c3ccc(NC(=O)CN4CCCC4)cc3)nc12
Data returned: 2.97

Data request: Which value of log10(IC50) has been reported for CNCc1ccc(-n2cc3cccc(C(N)=O)c3n2)cc1OC in the records?
Data returned: 3.28

Data request: Report log10(IC50) for NC(=O)c1cccc2cn(-c3ccc(NC(=O)CN4CCOCC4)cc3)nc12 please.
Data returned: 3.70

Data request: Find the recorded log10(IC50) belonging to NC(=O)c1cccc2cn(-c3ccc(C(=O)Nc4ccncc4)cc3)nc12 and report it.
Data returned: 3.86
